Here the recorded log10 of N2 permeability is given for each entry.
Measure: log10 of N2 permeability (log10 of the value in Barrer)

- Compound: "*c1ccc(C(c2ccc(-n3c(=O)c4cc5c(=O)n(*)c(=O)c5cc4c3=O)cc2)(C(F)(F)F)C(F)(F)F)cc1 (repeat unit)"
  Recorded value: 0.14
- Compound: "*c1ccc(Oc2ccc(C(C)(C)c3ccc(Oc4ccc(N5C(=O)c6ccc(C(=O)c7ccc8c(c7)C(=O)N(*)C8=O)cc6C5=O)cc4)cc3)cc2)cc1 (repeat unit)"
  Recorded value: -0.96
- Compound: "*c1ccc2c(c1)nc1n2C(=O)c2ccc(C(=O)Oc3ccc(C(c4ccc(OC(=O)c5ccc6c(c5)C(=O)n5c-6nc6ccc(*)cc65)cc4)(C(F)(F)F)C(F)(F)F)cc3)cc2-1 (repeat unit)"
  Recorded value: -0.81
- Compound: "*Oc1cccc(C(C)(C)c2ccc(Oc3ccc(S(=O)(=O)c4ccc(*)cc4)cc3)cc2)c1 (repeat unit)"
  Recorded value: -1.18
- Compound: "*C(=C(*)c1ccc(S(=O)(=O)O)cc1)c1ccc(S(=O)(=O)O)cc1 (repeat unit)"
  Recorded value: -0.55
- Compound: "*CC(*)C(=O)OCC (repeat unit)"
  Recorded value: 0.81
- Compound: "*CC(C)C(=O)OC(C)C(*)=O (repeat unit)"
  Recorded value: -1.40
- Compound: "*CCCC* (repeat unit)"
  Recorded value: 0.60
- Compound: "*C(=C(*)c1ccc(-c2ccccc2)cc1)c1ccccc1 (repeat unit)"
  Recorded value: 1.81
- Compound: "*CC(*)C(=O)OC (repeat unit)"
  Recorded value: -0.67
- Compound: "*OC(=O)Oc1ccc(C2(c3ccc(*)cc3)c3ccccc3-c3ccccc32)cc1 (repeat unit)"
  Recorded value: -0.23
- Compound: "*CC1CC(C*)C2C1C([Si](O[Si](C)(C)C)(O[Si](C)(C)C)O[Si](C)(C)C)C2[Si](O[Si](C)(C)C)(O[Si](C)(C)C)O[Si](C)(C)C (repeat unit)"
  Recorded value: 1.88
- Compound: "*CO* (repeat unit)"
  Recorded value: -1.62
- Compound: "*CC(*)C(=O)OCCCCCCCCCC (repeat unit)"
  Recorded value: 1.28
- Compound: "*OC(=O)c1ccc(C(=O)Oc2c(C)cc(C(C)(C)c3cc(C)c(O*)c(C)c3)cc2C)cc1 (repeat unit)"
  Recorded value: 0.16
- Compound: "*Oc1ccc(C(c2ccc(OC(=O)c3ccc(C(*)=O)cc3)cc2)(C(F)(F)F)C(F)(F)F)cc1 (repeat unit)"
  Recorded value: 0.47
- Compound: "*Oc1c(Br)cc(C(c2cc(Br)c(OC(=O)c3cccc(C(*)=O)c3)c(Br)c2)(C(F)(F)F)C(F)(F)F)cc1Br (repeat unit)"
  Recorded value: 0.03
- Compound: "*c1ccc(Oc2ccc(C(c3ccccc3)(c3ccccc3)c3ccc(Oc4ccc(*)cc4)cc3)cc2)cc1 (repeat unit)"
  Recorded value: -0.33
- Compound: "*Oc1ccc(C(c2ccc(OC(*)=O)cc2)(C(F)(F)F)C(F)(F)F)cc1 (repeat unit)"
  Recorded value: 0.23
- Compound: "*NC(=O)c1ccc(C(c2ccc(C(=O)O)c(C(=O)Nc3cc(Oc4ccc(*)c(N)c4)ccc3N)c2)(C(F)(F)F)C(F)(F)F)cc1C(=O)O (repeat unit)"
  Recorded value: -0.77
- Compound: "*c1ccc(Oc2ccc(N3C(=O)c4ccc(-c5ccc6c(c5)C(=O)N(*)C6=O)cc4C3=O)cc2)cc1 (repeat unit)"
  Recorded value: -1.67
- Compound: "*c1ccc(Cc2ccc(N3C(=O)c4ccc(Oc5ccc(Oc6ccc7c(c6)C(=O)N(*)C7=O)cc5)cc4C3=O)cc2)cc1 (repeat unit)"
  Recorded value: -1.45
